- assay.notes: Microsomal stability assay, liver microsome half-life (dog)
- Type: in vitro ADME
- condition.label: pH 7.4; dog liver microsomes 0.5 mg/mL, 1 μM compound, 37° C.; read-out: Liver microsome T1/2 Dog
Below is a list of entries, each paired with its recorded half-life at 1 μM value.

{"columns": ["compound", "half-life at 1 μM"],
 "data": [
  ["CC(C)(c1ccc(OCc2ccnc(NS(C)(=O)=O)n2)cc1)c1cc(F)c(N2CCOCC2)c(C#N)c1", "> 2 h"],
  ["CS(=O)(=O)Nc1ncc2cc(-c3ccc(Oc4cc(Cl)c(OCCCl)c(C#N)c4)cc3)ccc2n1", "> 2 h"],
  ["CS(=O)(=O)Nc1nccc(COc2ccc3c(c2)CCC3c2cc(Cl)c(OCCCl)c(C#N)c2)n1 (stereo not shown)", "> 2 h"],
  ["CNC(=O)c1ccc(N2C(=S)N(c3ccc(C#N)c(C(F)(F)F)c3)C(=O)C2(C)C)cc1F [Enzalutamide, enzalutamide, reference compound]", "> 2 h"],
  ["CC(C)(c1ccc(-c2ccc3nc(NS(C)(=O)=O)sc3c2)cc1)c1cc(Cl)c(OCCCl)c(C#N)c1", "> 2 h"],
  ["CC(C)(c1ccc(-c2ccc3nc(NS(C)(=O)=O)cnc3c2)cc1)c1cc(Cl)c(OCCCl)c(C#N)c1", "> 2 h"],
  ["CC(C)(c1ccc(OCc2cnc(NS(C)(=O)=O)nc2N2CCOCC2)cc1)c1cc(Cl)c(OCCCl)c(C#N)c1", "> 2 h"]
]}

* * *

- target.system: androgen receptor (AR) (Homo sapiens, UniProt P10275, T878A)
- Sequence (P10275 whole entry T878A): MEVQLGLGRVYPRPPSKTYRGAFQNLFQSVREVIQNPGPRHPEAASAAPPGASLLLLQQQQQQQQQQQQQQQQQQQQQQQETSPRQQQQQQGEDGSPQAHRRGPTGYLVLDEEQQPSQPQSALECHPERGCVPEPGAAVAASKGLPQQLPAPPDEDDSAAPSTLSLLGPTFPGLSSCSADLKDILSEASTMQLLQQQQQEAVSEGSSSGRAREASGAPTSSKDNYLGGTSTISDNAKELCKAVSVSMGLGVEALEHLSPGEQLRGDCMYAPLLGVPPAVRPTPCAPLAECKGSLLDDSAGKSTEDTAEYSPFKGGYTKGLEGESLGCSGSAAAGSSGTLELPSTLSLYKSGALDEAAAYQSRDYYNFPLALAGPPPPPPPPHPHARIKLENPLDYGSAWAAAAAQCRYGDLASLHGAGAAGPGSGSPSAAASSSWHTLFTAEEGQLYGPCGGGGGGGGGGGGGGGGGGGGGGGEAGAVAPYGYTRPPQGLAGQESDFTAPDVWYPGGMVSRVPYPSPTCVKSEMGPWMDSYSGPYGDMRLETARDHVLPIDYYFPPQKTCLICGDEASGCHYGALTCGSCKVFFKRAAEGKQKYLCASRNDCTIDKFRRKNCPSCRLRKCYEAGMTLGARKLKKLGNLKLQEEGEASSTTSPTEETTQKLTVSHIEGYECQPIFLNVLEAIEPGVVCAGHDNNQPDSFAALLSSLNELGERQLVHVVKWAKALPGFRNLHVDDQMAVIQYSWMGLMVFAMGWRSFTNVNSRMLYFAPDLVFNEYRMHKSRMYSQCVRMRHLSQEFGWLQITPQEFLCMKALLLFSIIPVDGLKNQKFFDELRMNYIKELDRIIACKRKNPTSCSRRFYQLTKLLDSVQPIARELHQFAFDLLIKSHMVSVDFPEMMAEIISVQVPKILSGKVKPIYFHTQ
- assay.notes: Androgen-induced PSA (6.1 kb)-luciferase reporter assay in LNCaP cells (R1881 1 nM)
- Format: cell-based
- Set-up: endogenous in cells; host or cells: LNCaP
- condition.label: 24 h, read-out: PSA-Luc IC50 Range
observable: IC50

{"columns": ["compound", "target.system", "observable", "reported.measurement"],
 "data": [
  ["CS(=O)(=O)N1CCC(Oc2ccc3c(ccn3-c3cc(Cl)c(OCCCl)c(C#N)c3)c2)CC1 [Compound A200]", "androgen receptor (AR) (Homo sapiens, UniProt P10275, T878A)", "IC50", "500 to 2000 nM"],
  ["CS(=O)(=O)N1CC2(CC(COc3ccc4c(ccn4-c4cc(Cl)c(OCCCl)c(C#N)c4)c3)C2)C1 [Compound A162]", "androgen receptor (AR) (Homo sapiens, UniProt P10275, T878A)", "IC50", "500 to 2000 nM"],
  ["COCc1c(F)cc(-n2ccc3cc(OCc4ccnc(NS(C)(=O)=O)n4)ccc32)cc1Cl [Compound A74]", "androgen receptor (AR) (Homo sapiens, UniProt P10275, T878A)", "IC50", "500 to 2000 nM"],
  ["CS(=O)(=O)N1CC(O)(COc2ccc3c(ccn3-c3cc(Cl)c(OCCCl)c(C#N)c3)c2)C1 [Compound A158]", "androgen receptor (AR) (Homo sapiens, UniProt P10275, T878A)", "IC50", "500 to 2000 nM"],
  ["CC1(NS(C)(=O)=O)CCN(Cc2ccc3c(ccn3-c3cc(Cl)c(OCCCl)c(C#N)c3)c2)CC1 [Compound A238]", "androgen receptor (AR) (Homo sapiens, UniProt P10275, T878A)", "IC50", "> 2000 nM"],
  ["CC1(C)CN(c2c(F)cc(C(C)(C)c3ccc(OCc4ccnc(NS(C)(=O)=O)n4)cc3)cc2C#N)C1 [Compound A260]", "androgen receptor (AR) (Homo sapiens, UniProt P10275, T878A)", "IC50", "500 to 2000 nM"],
  ["CC(C)CNc1ncc(C(C)(C)c2ccc(OCc3ccnc(NS(C)(=O)=O)n3)cc2)cc1Cl [Compound A67]", "androgen receptor (AR) (Homo sapiens, UniProt P10275, T878A)", "IC50", "> 2000 nM"],
  ["CC(C)(c1ccc(OCC23CCN(S(C)(=O)=O)C(C2)C3)cc1)c1cc(Cl)c(OCCCl)c(C#N)c1 [Compound A284]", "androgen receptor (AR) (Homo sapiens, UniProt P10275, T878A)", "IC50", "500 to 2000 nM"],
  ["CS(=O)(=O)N[C@H]1C[C@@H](COc2ccc3c(ccn3-c3cc(Cl)c(OCCCl)c(C#N)c3)c2)C1 [Compound A136]", "androgen receptor (AR) (Homo sapiens, UniProt P10275, T878A)", "IC50", "500 to 2000 nM"],
  ["CC(C)(c1ccc(OCc2cccc(S(N)(=O)=O)c2)cc1)c1cc(Cl)c(OCCCl)c(C#N)c1 [Compound A50]", "androgen receptor (AR) (Homo sapiens, UniProt P10275, T878A)", "IC50", "500 to 2000 nM"],
  ["CC(C)(c1ccc(-c2ccc3c(NS(C)(=O)=O)nccc3n2)cc1)c1cc(Cl)c(OCCCl)c(C#N)c1 [Compound A278]", "androgen receptor (AR) (Homo sapiens, UniProt P10275, T878A)", "IC50", "500 to 2000 nM"],
  ["Cc1cc(-c2ccc3c(ccn3-c3cc(Cl)c(OCCCl)c(C#N)c3)c2)ccc1CNS(C)(=O)=O [Compound A168]", "androgen receptor (AR) (Homo sapiens, UniProt P10275, T878A)", "IC50", "< 500 nM"],
  ["CC(C)(c1ccc(-c2ccc3ncncc3c2)cc1)c1cc(Cl)c(OCCCl)c(C#N)c1 [Compound A110]", "androgen receptor (AR) (Homo sapiens, UniProt P10275, T878A)", "IC50", "> 2000 nM"],
  ["CS(=O)(=O)Nc1nccc(COc2ccc3c(-c4cc(Cl)c(OCCCl)c(C#N)c4)cnn3c2)n1 [Compound A64]", "androgen receptor (AR) (Homo sapiens, UniProt P10275, T878A)", "IC50", "> 2000 nM"],
  ["CS(=O)(=O)Nc1nccc(COc2ccc3c(c2)C(c2cc(Cl)c(OCCCl)c(C#N)c2)CC3)n1 (centres unmarked) [Compound A31]", "androgen receptor (AR) (Homo sapiens, UniProt P10275, T878A)", "IC50", "> 2000 nM"],
  ["CS(=O)(=O)N1CCN(CCc2ccc3c(ccn3-c3cc(Cl)c(OCCCl)c(C#N)c3)c2)C(=O)C1 [Compound A125]", "androgen receptor (AR) (Homo sapiens, UniProt P10275, T878A)", "IC50", "> 2000 nM"],
  ["CS(=O)(=O)NC12CC(NC(=O)c3ccc4c(ccn4-c4cc(Cl)c(OCCCl)c(C#N)c4)c3)(C1)C2 [Compound A134]", "androgen receptor (AR) (Homo sapiens, UniProt P10275, T878A)", "IC50", "> 2000 nM"],
  ["CS(=O)(=O)N1C[C@H]2C[C@@H](Oc3ccc4c(ccn4-c4cc(Cl)c(OCCCl)c(C#N)c4)c3)C[C@H]2C1 [Compound A221]", "androgen receptor (AR) (Homo sapiens, UniProt P10275, T878A)", "IC50", "500 to 2000 nM"],
  ["CS(=O)(=O)N1CC2(CC(Oc3ccc4c(ccn4-c4cc(Cl)c(OCCCl)c(C#N)c4)c3)C2)C1 [Compound A163]", "androgen receptor (AR) (Homo sapiens, UniProt P10275, T878A)", "IC50", "500 to 2000 nM"],
  ["CS(=O)(=O)Nc1nccc(OCC23CC(C(=O)c4cc(Cl)c(OCCCl)c(C#N)c4)(C2)C3)n1 [Compound A8]", "androgen receptor (AR) (Homo sapiens, UniProt P10275, T878A)", "IC50", "> 2000 nM"],
  ["CC(C)(c1ccc(-c2c[nH]c3nc(NS(C)(=O)=O)ncc23)cc1)c1cc(Cl)c(OCCCl)c(C#N)c1 [Compound A198]", "androgen receptor (AR) (Homo sapiens, UniProt P10275, T878A)", "IC50", "500 to 2000 nM"],
  ["C[C@H](Oc1ccc(C(C)(C)c2cc(Cl)c(OCCCl)c(C#N)c2)cc1)C12CC(NS(C)(=O)=O)(C1)C2 [Compound A265]", "androgen receptor (AR) (Homo sapiens, UniProt P10275, T878A)", "IC50", "500 to 2000 nM"],
  ["CS(=O)(=O)Nc1ncc2cc(-c3ccc(Oc4cc(Cl)c(OCCCl)c(C#N)c4)cc3)ccc2n1 [Compound A116]", "androgen receptor (AR) (Homo sapiens, UniProt P10275, T878A)", "IC50", "500 to 2000 nM"],
  ["CC(C)(c1ccc(OCc2nccnc2N)cc1)c1cc(Cl)c(OCCCl)c(C#N)c1 [Compound A95]", "androgen receptor (AR) (Homo sapiens, UniProt P10275, T878A)", "IC50", "< 500 nM"],
  ["CS(=O)(=O)N1CCC(COc2ccc3c(ccn3-c3cc(Cl)c(OCCCl)c(C#N)c3)c2)CC1 [Compound A55]", "androgen receptor (AR) (Homo sapiens, UniProt P10275, T878A)", "IC50", "> 2000 nM"],
  ["CC(C)(c1ccc(OCC23CC(CNS(C)(=O)=O)(C2)C3)cc1)c1cc(Cl)c(OCCCl)c(C#N)c1 [Compound A277]", "androgen receptor (AR) (Homo sapiens, UniProt P10275, T878A)", "IC50", "< 500 nM"],
  ["CC(C)COc1c(Cl)cc(-n2ccc3cc(OCc4ccnc(NS(C)(=O)=O)n4)ccc32)cc1C#N [Compound A71]", "androgen receptor (AR) (Homo sapiens, UniProt P10275, T878A)", "IC50", "> 2000 nM"],
  ["CS(=O)(=O)NCC1CCN1CCc1ccc2c(ccn2-c2cc(Cl)c(OCCCl)c(C#N)c2)c1 (centres unmarked) [Compound A248]", "androgen receptor (AR) (Homo sapiens, UniProt P10275, T878A)", "IC50", "> 2000 nM"],
  ["CS(=O)(=O)Nc1nccc(COc2ccc3c(c2)OCCN3c2cc(Cl)c(OCCCl)c(C#N)c2)n1 [Compound A28]", "androgen receptor (AR) (Homo sapiens, UniProt P10275, T878A)", "IC50", "500 to 2000 nM"]
]}
